# method.notes: Cytotoxicity against human Raji cells assessed as cell viability at 1000 molar ratio
# Format: cell-based
# condition.context: read-out: INH
measurement.label: viability at 1000 molar ratio (%)

{"columns": ["compound", "data.value"],
 "data": [
  ["CC(C)(O)c1ccc2c(c1)C(=O)C[C@H]1[C@](C)(C(=O)O)CCC[C@]21C", 60],
  ["C=C(CC[C@@H](C(=O)O)[C@H]1[C@H](O)C[C@@]2(C)C3=C(CC[C@]12C)[C@@](C)(CCC(=O)OC)[C@H](C(=C)C)CC3)C(C)C [PORICOIC ACID HM]", 70],
  ["C=C(CC[C@@H](C(=O)O)[C@H]1[C@H](O)C[C@@]2(C)C3=C(CC[C@]12C)[C@@](C)(CCC(=O)O)[C@H](C(=C)C)C=C3)C(C)C [6,7-DEHYDROPORICOIC ACID H]", 70],
  ["C=C(CC[C@@H](C(=O)O)[C@H]1[C@H](O)C[C@@]2(C)C3=C(CC[C@]12C)[C@@]1(C)CCC(=O)C(C)(C)[C@@H]1CC3)C(C)C", 70]
]}

====

# method.notes: Inhibition of TPA-induced EBV early antigen activation in human Raji cells relative to TPA
# Format: cell-based, human gammaherpesvirus 4
List of IC50 values.

{"columns": ["molecule", "IC50"],
 "data": [
  ["C=C(CC[C@@H](C(=O)O)[C@H]1[C@H](O)C[C@@]2(C)C3=C(CC[C@]12C)[C@@](C)(CCC(=O)OC)[C@H](C(=C)C)CC3)C(C)C", "219 molar ratio"],
  ["C=C(C)[C@@H]1CC=C2C(=CC[C@]3(C)[C@@H]([C@@H](CCC(=C)C(C)(C)OC)C(=O)O)[C@H](O)C[C@@]23C)[C@@]1(C)CCC(=O)O", "268 molar ratio"],
  ["C=C(CC[C@@H](C(=O)O)[C@H]1[C@H](O)C[C@@]2(C)C3=C(CC[C@]12C)[C@@](C)(CCC(=O)O)[C@H](C(=C)C)C=C3)C(C)C [6,7-DEHYDROPORICOIC ACID H]", "193 molar ratio"],
  ["C=C(C)[C@@H]1CC=C2C(=CC[C@]3(C)[C@@H]([C@@H](CCC(=C)C(C)(O)CO)C(=O)O)[C@H](O)C[C@@]23C)[C@@]1(C)CCC(=O)OC (stereo not given in full)", "187 molar ratio"],
  ["C=C(C)[C@@H]1CCC2=C(CC[C@]3(C)[C@@H]([C@@H](CCC=C(C)C)C(=O)O)[C@H](O)C[C@@]23C)[C@@]1(C)CCC(=O)OC", "216 molar ratio"],
  ["C=C(CC[C@@H](C(=O)O)[C@H]1[C@H](O)C[C@@]2(C)C3=C(CC[C@]12C)[C@@]1(C)CCC(=O)C(C)(C)[C@@H]1CC3)C(C)(C)O", "299 molar ratio"],
  ["CC1=C(/C=C/C(C)=C/C=C/C(C)=C/C=C/C=C(C)/C=C/C=C(C)/C=C/C2=C(C)CCCC2(C)C)C(C)(C)CCC1", "397 molar ratio"],
  ["CC(C)(O)c1ccc2c(c1)C(=O)C[C@H]1[C@](C)(C(=O)O)CCC[C@]21C", "238 molar ratio"],
  ["C=C(C)[C@@H]1CC=C2C(=CC[C@]3(C)[C@@H]([C@@H](CCC(=C)C(C)(C)O)C(=O)O)CC[C@@]23C)[C@@]1(C)CCC(=O)O [25-HYDROXYPORICOIC ACID C]", "201 molar ratio"],
  ["C=C(CC[C@@H](C(=O)O)[C@H]1[C@H](O)C[C@@]2(C)C3=C(CC[C@]12C)[C@@]1(C)CCC(=O)C(C)(C)[C@@H]1CC3)C(C)C", "348 molar ratio"]
]}

====

# Test system: HL-60
# method.notes: Cytotoxicity against human HL60 cells after 48 hrs by MTT assay
# Type: functional, cell-based
# condition.context: HL-60, 48 h

{"columns": ["smiles.entry", "measurement.qualifier", "IC50 (µM)"],
 "data": [
  ["C=C(C)[C@@H]1CCC2=C(CC[C@]3(C)[C@@H]([C@@H](CCC=C(C)C)C(=O)O)[C@H](O)C[C@@]23C)[C@@]1(C)CCC(=O)O", "=", 32.6],
  ["C=C(C)[C@@H]1CC=C2C(=CC[C@]3(C)[C@@H]([C@@H](CCC(=C)C(C)(C)O)C(=O)O)[C@H](O)C[C@@]23C)[C@@]1(C)CCC(=O)OC", ">", 100],
  ["C=C(C)[C@@H]1CC=C2C(=CC[C@]3(C)[C@@H]([C@@H](CCC=C(C)C)C(=O)O)[C@H](O)C[C@@]23C)[C@@]1(C)CCC(=O)O", ">", 100],
  ["C=C(CC[C@@H](C(=O)O)[C@H]1[C@H](O)C[C@@]2(C)C3=C(CC[C@]12C)[C@@]1(C)CCC(=O)C(C)(C)[C@@H]1CC3)C(C)(C)O", "=", 84.7]
]}

====

List of IC50 values.
# Tested on: HL-60
# method.notes: Cytotoxicity against human HL60 cells after 48 hrs by MTT assay
# Type: functional, cell-based
# condition.context: HL-60, 48 h

{"columns": ["compound", "study.system", "measurement.qualifier", "IC50 / µM"],
 "data": [
  ["C=C(CC[C@@H](C(=O)O)[C@H]1[C@H](O)C[C@@]2(C)C3=CC[C@@H](C(=C)C)[C@](C)(CCC(=O)O)C3=CC[C@]12C)C(C)C [PORICOIC ACID A]", "HL-60", "=", 38],
  ["C=C(C)[C@@H]1CC=C2C(=CC[C@]3(C)[C@@H]([C@@H](CCC(=C)C(C)(C)O)C(=O)O)CC[C@@]23C)[C@@]1(C)CCC(=O)O [25-HYDROXYPORICOIC ACID C]", "HL-60", "=", 30.8],
  ["C=C(CC[C@@H](C(=O)O)[C@H]1[C@H](O)C[C@@]2(C)C3=C(CC[C@]12C)[C@@](C)(CCC(=O)O)[C@H](C(=C)C)C=C3)C(C)C [6,7-DEHYDROPORICOIC ACID H]", "HL-60", ">", 100],
  ["C=C(C)[C@@H]1CC=C2C(=CC[C@]3(C)[C@@H]([C@@H](CCC(=C)C(C)(C)OC)C(=O)O)[C@H](O)C[C@@]23C)[C@@]1(C)CCC(=O)O [25-METHOXYPORICOIC ACID A]", "HL-60", ">", 100],
  ["C=C(CC[C@@H](C(=O)O)[C@H]1[C@H](O)C[C@@]2(C)C3=CC[C@@H](C(=C)C)[C@](C)(CCC(=O)OC)C3=CC[C@]12C)C(C)C [PORICOIC ACID AM]", "HL-60", "=", 15.9],
  ["C=C(CC[C@@H](C(=O)O)[C@H]1[C@H](O)C[C@@]2(C)C3=C(CC[C@]12C)[C@@]1(C)CCC(=O)C(C)(C)[C@@H]1CC3)C(C)C", "HL-60", ">", 100],
  ["CC(C)(O)c1ccc2c(c1)C(=O)C[C@H]1[C@](C)(C(=O)O)CCC[C@]21C", "HL-60", ">", 100],
  ["C=C(CC[C@@H](C(=O)O)[C@H]1[C@H](O)C[C@@]2(C)C3=C(CC[C@]12C)[C@@](C)(CCC(=O)O)[C@H](C(=C)C)CC3)C(C)C [PORICOIC ACID H]", "HL-60", "=", 28.4],
  ["C=C(CC[C@@H](C(=O)O)[C@H]1[C@H](O)C[C@@]2(C)[C@]34C=C[C@@]5(OO3)C(C)(C)[C@@H](O)CC[C@]5(C)C4=CC[C@]12C)C(C)C", "HL-60", ">", 100],
  ["C=C(C)[C@@H]1CC=C2C(=CC[C@]3(C)[C@@H]([C@@H](CCC(=C)C(C)(O)CO)C(=O)O)[C@H](O)C[C@@]23C)[C@@]1(C)CCC(=O)OC (stereo partly specified)", "HL-60", "=", 94.6],
  ["C=C(CC[C@@H](C(=O)O)[C@H]1[C@H](O)C[C@@]2(C)C3=CC[C@H]4C(C)(C)[C@H](O)CC[C@]4(C)C3=CC[C@]12C)C(C)(C)O", "HL-60", "=", 29.4]
]}
